Please go through the items and note down their IC50.
biological target: human TPH2 (Homo sapiens); construct: Full-length human TH isoform 1 (TH1), human PAH, human TPH2, and doubly truncated human TPH1; MBP (cleaved yes); made in house; host or cells: E. coli BL21(DE3); assay: TPH2 enzyme activity assay (HPLC); format: biochemical; conditions: best-fit IC50 (± SE), nonlinear regression; N.A. = no activity
Sequence (Q8IWU9 whole entry, the tested form may be a part, canonical isoform): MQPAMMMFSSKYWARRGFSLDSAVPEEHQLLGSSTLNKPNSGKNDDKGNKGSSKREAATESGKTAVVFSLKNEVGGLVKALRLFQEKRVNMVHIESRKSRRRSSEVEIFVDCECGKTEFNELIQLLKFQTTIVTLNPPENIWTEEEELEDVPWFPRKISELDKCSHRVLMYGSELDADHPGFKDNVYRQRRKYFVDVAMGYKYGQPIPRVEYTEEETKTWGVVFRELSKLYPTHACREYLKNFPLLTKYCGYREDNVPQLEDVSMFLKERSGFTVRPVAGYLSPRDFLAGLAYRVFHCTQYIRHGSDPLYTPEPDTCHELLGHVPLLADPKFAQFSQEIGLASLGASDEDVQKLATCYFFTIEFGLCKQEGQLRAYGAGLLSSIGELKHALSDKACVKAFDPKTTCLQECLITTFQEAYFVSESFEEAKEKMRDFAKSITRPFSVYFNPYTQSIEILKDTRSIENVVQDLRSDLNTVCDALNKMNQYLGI
Give bare numbers, in µM.

Solved cases (4 shown):
COc1ccc2c(c1)N(Cc1ccc(C(=O)NO)cc1)c1ccccc1S2 [KV103]    9.78
O=C(NO)c1ccc(Cl)c(C(=O)Nc2ccc(Cl)cc2)c1 [EG22]    10.7
O=C(/C=C/c1ccccc1Oc1ccc(Cl)cc1)NO [TB57]    195
Cc1[nH]c2ccccc2c1CCNCc1ccc(/C=C/C(=O)NO)cc1 [panobinostat, reference compound]    43.6

Lab note: next molecule to report on.
In: Find the recorded IC50 belonging to CC(C)c1cccc(=O)c(O)c1 [β-thujaplicin, reference compound] and report it.
Out: 12.9

* * *

I'd be grateful if you could share measured Tm (°C) ± SD (°C), primary screen for these entries.
target: TPH1 (Homo sapiens, UniProt P17752); construct: doubly truncated human TPH1 (ΔNH102-ΔCOOH402); made in house; host or cells: E. coli BL21(DE3); experiment: Differential scanning fluorimetry (DSF) thermal stability assay; assay type: binding; conditions: DSF, 50 μM compound, 0.075 mg/mL TPH1, 0.5% DMSO; three independent measurements (a: duplicates)
Sequence (P17752 102-402): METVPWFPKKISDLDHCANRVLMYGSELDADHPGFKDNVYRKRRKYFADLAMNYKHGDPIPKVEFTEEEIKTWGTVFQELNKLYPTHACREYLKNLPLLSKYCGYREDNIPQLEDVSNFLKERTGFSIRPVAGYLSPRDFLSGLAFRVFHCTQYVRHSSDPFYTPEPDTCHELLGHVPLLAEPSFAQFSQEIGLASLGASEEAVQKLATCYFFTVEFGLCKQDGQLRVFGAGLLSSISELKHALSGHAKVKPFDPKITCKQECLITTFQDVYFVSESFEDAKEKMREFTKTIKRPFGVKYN
Numbers only, in °C.

Answered cases to consult:
O=C(CCCCCCC(=O)Nc1ccccc1)NO [vorinostat, reference compound]    56.4
Nc1ccccc1NC(=O)c1ccc(CNc2nccc(-c3cccnc3)n2)cc1 [mocetinostat, reference compound]    54.5

Please state, for each entry, its recorded Tm (°C) ± SD (°C), primary screen.
1. Cc1ccc(C(=O)NO)cc1C(=O)Nc1ccc(Cl)cc1 [EG23]
2. COC(=O)[C@H](Cc1ccc(-c2ccc(C)cc2)cc1)NC(=O)CCCCCCC(=O)NO [SW189]

Out:
1. 58.2
2. 58.0

* * *

target: TPH1 (Homo sapiens, UniProt P17752); construct: doubly truncated human TPH1 (ΔNH102-ΔCOOH402); made in house; host or cells: E. coli BL21(DE3); assay: Differential scanning fluorimetry (DSF) thermal stability assay; assay type: binding; conditions: DSF, 50 μM compound, 0.075 mg/mL TPH1, 0.5% DMSO; three independent measurements (a: duplicates)
measuredQuantity: Tm (°C) ± SD (°C), primary screen
One number for each entry, in °C.

Example results:
O=C(NO)c1ccc(Cl)c(C(=O)Nc2ccc(Cl)cc2)c1 [EG22]    59.4
COc1ccc(C(=O)NO)cc1NS(=O)(=O)c1ccc(C)cc1 [TH71]    60.0
Nc1ccccc1NC(=O)c1ccc(CNC(=O)OCc2cccnc2)cc1 [entinostat, reference compound]    56.0
COc1ccc(C(=O)NO)cc1OCc1ccccc1 [PZ031, 3-Benzyloxy-4-methoxybenzhydroxamic acid]    57.0
COc1ccc2c(c1)N(Cc1ccc(C(=O)NO)cc1)c1ccccc1S2 [KV103]    59.6

Required: Tm (°C) ± SD (°C), primary screen, one value per compound below.
1. O=C(NO)c1cccc(NCc2ccccc2)c1 [TH28, 3-N-Benzylamino-benzohydroxamate]
2. O=C(NO)c1cc2ccccc2[nH]1 [TB74, 1H-Indole-2-hydroxamic acid]

Out:
1. 58.1
2. 59.7

Dear colleague, could you send me Tm (°C) ± SD (°C), primary screen for each of the items below? Thanks.
1. Oc1ccccc1-c1nc2ccccc2o1 [2-(2-OH-phenyl)benzoxazol, 2-(2-hydroxyphenyl)benzoxazole, reference compound]
2. Cc1[nH]c2ccccc2c1CCNCc1ccc(/C=C/C(=O)NO)cc1 [panobinostat, reference compound]
3. Cc1cc2cc(NS(=O)(=O)c3cc(C(=O)NO)ccc3Cl)ccc2n(C)c1=O [EG29]

Out:
1: 57.6; 2: 56.0; 3: 57.8
